# credit: PubChem BioAssay AID2060601

This listing pairs compounds with measured viability, T/C.
tested on: 874868-142-R-J2-PDC complex spheroids, growth % test/control; assay: Anticancer human tumor 874868-142-R-J2-PDC patient-derived head and neck squamous carcinoma cell line growth inhibition [CLK]; conditions: second compound 1 µM; first compound 0.003 µM; hits give low values;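 further: spheroids exposed to the compounds for 7 days; 100% = DMSO vehicle control viability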
The reply should be a number in %, with the unit left off.

Here are 3 compounds together with their reported answers.
C=CC(=O)Nc1cc(Nc2nccc(-c3cn(C)c4ccccc34)n2)c(OC)cc1N(C)CCN(C)C + CN1CCN(c2cc(C(=O)Nc3cc4cc(-c5cnn(C)c5)ccc4cn3)ccn2)CC1	0.88
C=CC(=O)Nc1cc(Nc2nccc(-c3cn(C)c4ccccc34)n2)c(OC)cc1N(C)CCN(C)C + CNC(=O)c1ccc(Nc2nc(OC3CCCC3)c3c(-c4ccc5nc(C)oc5c4)c[nH]c3n2)c(OC)c1	40.5
CC(C)CC(NC(=O)C(Cc1ccccc1)NC(=O)c1cnccn1)B(O)O (centres undefined) + CNC(=O)c1ccc(Nc2nc(OC3CCCC3)c3c(-c4ccc5nc(C)oc5c4)c[nH]c3n2)c(OC)c1	31.9

Next:
Result for CC(C)CC(NC(=O)C(Cc1ccccc1)NC(=O)c1cnccn1)B(O)O (centres undefined) + CN1CCN(c2cc(C(=O)Nc3cc4cc(-c5cnn(C)c5)ccc4cn3)ccn2)CC1 , tested on 874868-142-R-J2-PDC complex spheroids, growth % test/control, viability, T/C: 0.22
